B1: Hairpin Ribozyme (parent)
chain: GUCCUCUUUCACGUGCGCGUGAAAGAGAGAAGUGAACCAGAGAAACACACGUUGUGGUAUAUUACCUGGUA

- Variants of: B1
- EXPERIMENTAL PROTOCOL: self-cleavage, relative activity (ratio to wild type); higher = more cleavage; co-transcriptional
Item-by-item account of self-cleavage
Give your answer as a number; write no unit.

U8C U60A : 0.554
C37U U62A : 0.165
A11U U63C : 0.122
G32U U67G : 0.121

What the record says about A22C A49C : self-cleavage is 0.264

What the record says about U20A G32A : self-cleavage is 0.18
